assay: AUC (0 to infinity) in rat at 20 mg/kg, po; assay type: ADME, organism-based, Plasma; set-up: time infinity, dose 20 mg/kg, route oral; details: plasma
measurement name: AUC(0-inf) (ng·h/mL)

[[record]]
compound = "O=C1NCC2c3c(cccc31)CCN2C(=O)c1cc(Cc2n[nH]c(=O)c3ccccc23)ccc1F (stereo unspecified)"
numeric_result = 1820


---

assay: Cytotoxicity against Chinese hamster V79 cells expressing wild type BRCA2 assessed as growth inhibition; format: cell-based, Cricetulus griseus
Below, each entry is listed alongside its reported CC50.
measurement name: CC50

[[record]]
compound = "O=C(N[C@@H]1C[C@H](O)c2ccccc21)c1cc(Cc2n[nH]c(=O)c3ccccc23)ccc1F (relative stereo)"
result = "1.49 µM"

[[record]]
compound = "O=C1NCC2c3c(cccc31)CCN2C(=O)C1CCCN1C(=O)c1cc(Cc2n[nH]c(=O)c3ccccc23)ccc1F (centres undefined)"
result = "> 10 µM"

[[record]]
compound = "O=C(c1cc(Cc2n[nH]c(=O)c3ccccc23)ccc1F)N1CCc2cccc3c2C1CC3F (centres undefined)"
result = "> 10 µM"

[[record]]
compound = "O=C(NC1CNC(=O)c2ccccc21)c1cccc(Cc2n[nH]c(=O)c3ccccc23)c1 (centres undefined)"
result = "> 10 µM"


---

test: Volume of distribution at steady state in rat at 10 mg/kg, iv; assay type: ADME, organism-based; parameters: dose 10 mg/kg, route intravenous; conditions: in vivo, read-out: Vdss
measurement name: Vd (L/kg)

[[record]]
molecule = "O=C1CC2c3c(cccc31)CCN2C(=O)c1cc(Cc2n[nH]c(=O)c3ccccc23)ccc1F (configuration not stated)"
measurement_name = "Vd"
numeric_result = 4.56

[[record]]
molecule = "O=C1NCC2c3c(cccc31)CCN2C(=O)c1cc(Cc2n[nH]c(=O)c3ccccc23)ccc1F (configuration not stated)"
measurement_name = "Vd"
numeric_result = 4.27


---

Recorded inhibition at 5 µM for the following compounds
molecular target: hERG (KCNH2) (Homo sapiens, UniProt Q12809); assay: Inhibition of human ERG at 5 uM relative to control
Sequence (Q12809 whole entry): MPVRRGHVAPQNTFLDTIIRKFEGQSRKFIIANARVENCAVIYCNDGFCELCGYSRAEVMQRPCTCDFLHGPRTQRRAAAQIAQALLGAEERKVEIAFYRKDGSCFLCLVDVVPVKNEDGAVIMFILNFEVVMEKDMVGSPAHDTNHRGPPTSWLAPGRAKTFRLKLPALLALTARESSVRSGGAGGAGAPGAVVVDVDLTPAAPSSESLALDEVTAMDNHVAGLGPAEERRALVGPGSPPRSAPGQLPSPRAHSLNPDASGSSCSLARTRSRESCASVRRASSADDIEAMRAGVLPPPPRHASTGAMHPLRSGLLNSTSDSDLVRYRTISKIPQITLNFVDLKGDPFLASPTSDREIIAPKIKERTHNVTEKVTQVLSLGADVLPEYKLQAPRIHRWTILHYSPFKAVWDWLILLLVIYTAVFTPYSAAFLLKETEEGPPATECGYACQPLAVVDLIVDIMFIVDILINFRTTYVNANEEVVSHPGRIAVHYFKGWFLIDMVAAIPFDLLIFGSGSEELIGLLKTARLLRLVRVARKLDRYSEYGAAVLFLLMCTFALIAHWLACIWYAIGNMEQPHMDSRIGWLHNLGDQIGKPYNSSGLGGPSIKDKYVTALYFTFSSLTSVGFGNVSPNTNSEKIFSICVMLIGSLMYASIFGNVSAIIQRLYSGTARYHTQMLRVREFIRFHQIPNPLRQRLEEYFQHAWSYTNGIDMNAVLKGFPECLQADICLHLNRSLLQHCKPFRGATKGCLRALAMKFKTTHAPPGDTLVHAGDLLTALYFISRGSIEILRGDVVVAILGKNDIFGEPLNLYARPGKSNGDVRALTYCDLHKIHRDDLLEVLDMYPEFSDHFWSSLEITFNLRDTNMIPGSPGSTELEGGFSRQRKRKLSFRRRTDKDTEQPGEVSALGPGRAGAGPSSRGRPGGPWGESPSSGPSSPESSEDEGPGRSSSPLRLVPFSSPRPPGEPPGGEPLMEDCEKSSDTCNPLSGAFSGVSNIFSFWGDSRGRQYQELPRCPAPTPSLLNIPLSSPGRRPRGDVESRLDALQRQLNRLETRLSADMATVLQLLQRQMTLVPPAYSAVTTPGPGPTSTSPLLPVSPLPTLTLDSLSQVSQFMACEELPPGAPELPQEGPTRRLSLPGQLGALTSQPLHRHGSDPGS
measurement name: inhibition at 5 µM (%)

[[record]]
compound = "O=C1CC2c3c(cccc31)CCN2C(=O)c1cc(Cc2n[nH]c(=O)c3ccccc23)ccc1F (configuration not stated)"
numeric_result = 34

[[record]]
compound = "O=C1NCC2c3c(cccc31)CCN2C(=O)c1cc(Cc2n[nH]c(=O)c3ccccc23)ccc1F (configuration not stated)"
numeric_result = 17


---

Below, each entry is listed with its recorded Tmax.
assay: Tmax in rat at 20 mg/kg, po; type: ADME, organism-based; parameters: dose 20 mg/kg, route oral; conditions: in vivo
measurement name: Tmax (min)

[[record]]
compound = "O=C1NCC2c3c(cccc31)CCN2C(=O)c1cc(Cc2n[nH]c(=O)c3ccccc23)ccc1F (configuration not stated)"
numeric_result = 25.2

[[record]]
compound = "O=C1CC2c3c(cccc31)CCN2C(=O)c1cc(Cc2n[nH]c(=O)c3ccccc23)ccc1F (configuration not stated)"
numeric_result = 26.4


---

assay: Cytotoxicity against Chinese hamster BRCA2-deficient VC8 cells assessed as growth inhibition; type: cell-based; conditions: Cricetulus griseus, V-C8
measurement name: CC50 (nM)

[[record]]
compound = "O=C(c1cc(Cc2n[nH]c(=O)c3ccccc23)ccc1F)N1CCc2cccc3c2C1CNC3 (configuration not stated)"
measurement_name = "CC50"
limit_qualifier = ">"
numeric_result = 10000

[[record]]
compound = "O=C1NCC2c3c(cccc31)CCN2C(=O)c1cc(Cc2n[nH]c(=O)c3ccccc23)ccc1F (configuration not stated)"
measurement_name = "CC50"
limit_qualifier = "="
numeric_result = 96

[[record]]
compound = "O=C1CC2c3c(cccc31)CCN2C(=O)c1cc(Cc2n[nH]c(=O)c3ccccc23)ccc1F (configuration not stated)"
measurement_name = "CC50"
limit_qualifier = "="
numeric_result = 4.53

[[record]]
compound = "O=C(c1cc(Cc2n[nH]c(=O)c3ccccc23)ccc1F)N1CCc2cccc3c2C1CC3O (configuration not stated)"
measurement_name = "CC50"
limit_qualifier = ">"
numeric_result = 10000

[[record]]
compound = "O=C(N[C@@H]1C[C@@H](O)c2ccccc21)c1cc(Cc2n[nH]c(=O)c3ccccc23)ccc1F (relative stereo)"
measurement_name = "CC50"
limit_qualifier = "="
numeric_result = 2270

[[record]]
compound = "O=C(NC1CC(=O)c2ccccc21)c1cc(Cc2n[nH]c(=O)c3ccccc23)ccc1F (configuration not stated)"
measurement_name = "CC50"
limit_qualifier = ">"
numeric_result = 10000

[[record]]
compound = "O=C(c1cc(Cc2n[nH]c(=O)c3ccccc23)ccc1F)N1Cc2cccc3c2C(C1)NCC3 (configuration not stated)"
measurement_name = "CC50"
limit_qualifier = "="
numeric_result = 630

[[record]]
compound = "O=C(c1cc(Cc2n[nH]c(=O)c3ccccc23)ccc1F)N1CCc2cccc3c2C1CC3F (configuration not stated)"
measurement_name = "CC50"
limit_qualifier = ">"
numeric_result = 10000

[[record]]
compound = "O=C1NCC2c3c(cccc31)CCN2C(=O)C1CCN(C(=O)c2cc(Cc3n[nH]c(=O)c4ccccc34)ccc2F)CC1 (configuration not stated)"
measurement_name = "CC50"
limit_qualifier = ">"
numeric_result = 1000

[[record]]
compound = "O=C1CC2c3c(cccc3N1)CCN2C(=O)c1cc(Cc2n[nH]c(=O)c3ccccc23)ccc1F (configuration not stated)"
measurement_name = "CC50"
limit_qualifier = ">"
numeric_result = 10000

[[record]]
compound = "O=C1NCC2c3c(cccc31)CCN2C(=O)c1cc(Cc2n[nH]c(=O)c3c2CCCC3)ccc1F (configuration not stated)"
measurement_name = "CC50"
limit_qualifier = "="
numeric_result = 114

[[record]]
compound = "O=C(c1cc(Cc2n[nH]c(=O)c3ccccc23)ccc1F)N1CCN(C(=O)C2CC2)CC1"
measurement_name = "CC50"
limit_qualifier = "="
numeric_result = 201

[[record]]
compound = "Cc1c(Cc2ccc(F)c(C(=O)N3CCc4cccc5c4C3CNC5=O)c2)n[nH]c(=O)c1C (configuration not stated)"
measurement_name = "CC50"
limit_qualifier = ">"
numeric_result = 1000

[[record]]
compound = "O=C(NC1CNC(=O)c2ccccc21)c1cc(Cc2n[nH]c(=O)c3ccccc23)ccc1F (configuration not stated)"
measurement_name = "CC50"
limit_qualifier = ">"
numeric_result = 10000

[[record]]
compound = "O=C(NCC(=O)N1CCc2cccc3c2C1CNC3=O)c1cc(Cc2n[nH]c(=O)c3ccccc23)ccc1F (configuration not stated)"
measurement_name = "CC50"
limit_qualifier = ">"
numeric_result = 1000

[[record]]
compound = "O=C1NCC2c3c(cccc31)CCN2C(=O)C1CCCN1C(=O)c1cc(Cc2n[nH]c(=O)c3ccccc23)ccc1F (configuration not stated)"
measurement_name = "CC50"
limit_qualifier = ">"
numeric_result = 1000

[[record]]
compound = "O=C(N[C@@H]1C[C@H](O)c2ccccc21)c1cc(Cc2n[nH]c(=O)c3ccccc23)ccc1F (relative stereo)"
measurement_name = "CC50"
limit_qualifier = "="
numeric_result = 418


---

test: Cmax in rat at 20 mg/kg, po; format: ADME, organism-based; design: dose 20 mg/kg, route oral; conditions: in vivo
# Cmax listing for each entry below
measurement name: Cmax (ng/mL)

[[record]]
molecule = "O=C1CC2c3c(cccc31)CCN2C(=O)c1cc(Cc2n[nH]c(=O)c3ccccc23)ccc1F (configuration not stated)"
numeric_result = 116

[[record]]
molecule = "O=C1NCC2c3c(cccc31)CCN2C(=O)c1cc(Cc2n[nH]c(=O)c3ccccc23)ccc1F (configuration not stated)"
numeric_result = 722


---

biological target: Poly [ADP-ribose] polymerase 1 (Homo sapiens); assay: Inhibition of human recombinant PARP1 after 1 hr by ELISA
Sequence (P09874 whole entry): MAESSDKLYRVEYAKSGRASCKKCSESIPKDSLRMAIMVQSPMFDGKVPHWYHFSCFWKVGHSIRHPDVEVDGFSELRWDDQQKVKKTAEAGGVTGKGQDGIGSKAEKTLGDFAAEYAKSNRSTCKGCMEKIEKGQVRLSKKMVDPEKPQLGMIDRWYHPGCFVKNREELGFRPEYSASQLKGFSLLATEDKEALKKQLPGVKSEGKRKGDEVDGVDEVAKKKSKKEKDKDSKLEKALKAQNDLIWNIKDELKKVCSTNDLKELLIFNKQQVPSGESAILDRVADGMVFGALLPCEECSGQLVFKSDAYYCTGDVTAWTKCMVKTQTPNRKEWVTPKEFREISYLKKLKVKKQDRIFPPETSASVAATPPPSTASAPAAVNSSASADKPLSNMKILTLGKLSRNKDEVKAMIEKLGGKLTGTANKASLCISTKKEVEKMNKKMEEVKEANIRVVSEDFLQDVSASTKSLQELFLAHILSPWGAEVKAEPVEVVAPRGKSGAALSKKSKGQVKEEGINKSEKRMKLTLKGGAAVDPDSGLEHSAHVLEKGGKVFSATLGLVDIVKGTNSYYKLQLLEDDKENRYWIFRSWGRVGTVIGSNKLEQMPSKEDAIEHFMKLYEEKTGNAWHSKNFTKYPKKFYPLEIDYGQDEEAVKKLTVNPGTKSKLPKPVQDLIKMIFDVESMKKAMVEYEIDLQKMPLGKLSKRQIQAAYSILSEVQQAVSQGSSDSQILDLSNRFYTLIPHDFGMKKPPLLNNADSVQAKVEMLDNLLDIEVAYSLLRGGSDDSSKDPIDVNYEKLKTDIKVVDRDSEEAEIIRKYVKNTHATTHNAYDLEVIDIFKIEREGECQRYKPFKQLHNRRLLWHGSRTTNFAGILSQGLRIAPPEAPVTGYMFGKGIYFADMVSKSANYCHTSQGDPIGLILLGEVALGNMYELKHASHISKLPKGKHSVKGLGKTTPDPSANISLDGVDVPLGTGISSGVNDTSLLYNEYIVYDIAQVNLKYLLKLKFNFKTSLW
measurement name: log10(IC50) (log10 of the value in nM)

[[record]]
compound = "O=C1CC2c3c(cccc31)CCN2C(=O)c1cc(Cc2n[nH]c(=O)c3ccccc23)ccc1F (stereo unspecified)"
measurement_name = "log10(IC50)"
numeric_result = 0.54

[[record]]
compound = "O=C1CC2c3c(cccc3N1)CCN2C(=O)c1cc(Cc2n[nH]c(=O)c3ccccc23)ccc1F (stereo unspecified)"
measurement_name = "log10(IC50)"
numeric_result = 2.59

[[record]]
compound = "O=C(CCN1CCc2cccc3c2C1CNC3=O)NCC(=O)N1CC=C(c2ccc(F)cc2)CC1 (stereo unspecified)"
measurement_name = "log10(IC50)"
numeric_result = 3.04

[[record]]
compound = "O=C1NCC2c3c(cccc31)CCN2C(=O)C1CCN(C(=O)c2cc(Cc3n[nH]c(=O)c4ccccc34)ccc2F)CC1 (stereo unspecified)"
measurement_name = "log10(IC50)"
numeric_result = 0.28

[[record]]
compound = "O=C1NCC2c3c(cccc31)CCN2CC(=O)N1CCC2CNCC21 (stereo unspecified)"
measurement_name = "log10(IC50)"
numeric_result = 3.97

[[record]]
compound = "O=C1NCC2c3c(cccc31)CCN2C(=O)c1cc(Cc2n[nH]c(=O)c3c2CCCC3)ccc1F (stereo unspecified)"
measurement_name = "log10(IC50)"
numeric_result = 0.26

[[record]]
compound = "O=C(c1cc(Cc2n[nH]c(=O)c3ccccc23)ccc1F)N1Cc2cccc3c2C(C1)NCC3 (stereo unspecified)"
measurement_name = "log10(IC50)"
numeric_result = 0.14

[[record]]
compound = "COc1ccc(N2CCN(C(=O)CNC(=O)CCCN3CCc4cccc5c4C3CNC5=O)CC2)cc1 (stereo unspecified)"
measurement_name = "log10(IC50)"
numeric_result = 3.95

[[record]]
compound = "COc1ccc(N2CCN(C(=O)CNC(=O)CN3CCc4cccc5c4C3CNC5=O)CC2)cc1 (stereo unspecified)"
measurement_name = "log10(IC50)"
numeric_result = 2.48

[[record]]
compound = "O=C(N[C@@H]1C[C@@H](O)c2ccccc21)c1cc(Cc2n[nH]c(=O)c3ccccc23)ccc1F (relative stereo)"
measurement_name = "log10(IC50)"
numeric_result = -0.24

[[record]]
compound = "O=C1NCC2c3c(cccc31)CCN2C(=O)c1cc(Cc2n[nH]c(=O)c3ccccc23)ccc1F (stereo unspecified)"
measurement_name = "log10(IC50)"
numeric_result = -0.51

[[record]]
compound = "O=C1NCC2c3c(cccc31)CCN2CC(=O)N1CC2CCCNC2C1 (stereo unspecified)"
measurement_name = "log10(IC50)"
numeric_result = 3.97

[[record]]
compound = "O=C(c1cc(Cc2n[nH]c(=O)c3ccccc23)ccc1F)N1CCc2cccc3c2C1CC3O (stereo unspecified)"
measurement_name = "log10(IC50)"
numeric_result = 1.94

[[record]]
compound = "COc1ccc(N2CCN(C(=O)CNC(=O)CCN3CCc4cccc5c4C3CNC5=O)CC2)cc1 (stereo unspecified)"
measurement_name = "log10(IC50)"
numeric_result = 3.94

[[record]]
compound = "C[C@H](NC(=O)CN1CCc2cccc3c2C1CNC3=O)C(=O)N1CC=C(c2ccc(F)cc2)CC1 (stereo partly specified)"
measurement_name = "log10(IC50)"
numeric_result = 1.28

[[record]]
compound = "O=C(CCN1CCc2cccc3c2C1CNC3=O)NCC(=O)N1CCN(c2ccccc2F)CC1 (stereo unspecified)"
measurement_name = "log10(IC50)"
numeric_result = 3.95


// provenance: ChEMBL document CHEMBL2321760
